Where do the numbers come from? From the supplement of paper PMC10567573.

B1: TRIM15 (parent)
chain: LSQMGAQSSGKILLCPLCQEEEQA

# Variants of: B1
# MEASUREMENT PROTOCOL: protein stability index of a GFP-peptide fusion (GPS, HEK-293T) (PSI 1-6); higher = more stable;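 note: lentivirally expressed fusions sorted by FACS into six bins by GFP to DsRed ratio, PSI derived from sequencing read proportions per bin multiplied by bin number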
# SETTINGS: c terminus: a fixed tail appended
ASSAY READOUT: protein stability index

> print(dat)
   var  experimental.value
1  A6W                3.94
2  M4E                3.94
3  S8R                3.89
4  S8D                3.98
